Numbers sourced from paper PMC11602988.

- target: OCT1 WT (Homo sapiens, UniProt O15245)
- experiment: Uptake screening (transport ratio over empty vector), HEK293 cells overexpressing OCT1 WT
- Assay type: cell-based
- Design: expressed in transfected cells
Field: Mean_transport_ratio_WT. Provide a value for each of the molecules that follow.

Please fill in: Mean_transport_ratio_WT reported for C[N+]1(C)[C@@H]2CC(OC(=O)C(O)(c3cccs3)c3cccs3)C[C@H]1[C@@H]1O[C@@H]12 (stereo partly shown) = 34.841

Memo: CCC1(c2cccc(O)c2)CCCCN(C)C1 (stereo not shown) , reported Mean_transport_ratio_WT: 1.477

# molecule COc1ccc2[nH]cc(CCN)c2c1 ; its Mean_transport_ratio_WT = 3.73

Measured Mean_transport_ratio_WT of CCN[C@@H](C)Cc1cccc(C(F)(F)F)c1 [(S)-Fenfluramine] : 1.065

* * *

- target: OCT1 WT (Homo sapiens, UniProt O15245)
- experiment: Uptake screening (transport ratio over empty vector), HEK293 cells overexpressing OCT1 WT;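 also: intracellular substrate levels quantified by HPLC–tandem mass spectrometry after uptake in HBSS+ buffer at 37 °C, stable Flp-In HEK293 lines, fold change versus empty vector–transfected cells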
- Assay type: cell-based
- Set-up: expressed in transfected cells
- measurement_conditions: uptake ratio of OCT1 WT-overexpressing HEK293 cells over empty vector
Kindly state Mean_transport_ratio_WT for each of the entries shown.

For record COc1ccc2c3c([nH]c2c1)C(C)=NCC3 the listed Mean_transport_ratio_WT is 1.46

Measured Mean_transport_ratio_WT, CNCC(O)c1ccc(O)c(OC)c1 (stereo not shown) : 7.123

The reported value for NCC(O)c1ccc(O)cc1 (stereo not shown) in terms of Mean_transport_ratio_WT is 3.942

For NC(N)=NCc1cccc(I)c1 the molecule record lists Mean_transport_ratio_WT as 11.544

Sample Cc1cc(O)cc(C)c1OCC(C)N (stereo not shown) [4-Hydroxy mexiletine] ; Mean_transport_ratio_WT observed: 3.163

So, CN[C@@H]1CCc2[nH]c3ccc(C(N)=O)cc3c2C1 ? Its Mean_transport_ratio_WT was 22.068

Record summary for CC(N)CCCC(C)(C)O (stereo not shown) : reported Mean_transport_ratio_WT = 8.957

* * *

- target: OCT1 Phe244Ala variant (Homo sapiens, UniProt O15245, F244A)
- experiment: Uptake screening (transport ratio over empty vector), HEK293 cells overexpressing OCT1 Phe244Ala variant
- Assay type: cell-based
- Parameters: expressed in transfected cells
- measurement_conditions: uptake ratio of OCT1 Phe244Ala-overexpressing HEK293 cells over empty vector
endpoint_name: Mean_transport_ratio_Phe244Ala
// no unit, no text: just the number

Mean_transport_ratio_Phe244Ala in this record for CNCCc1c[nH]c2ccc(O)cc12 : 8.275

The reported Mean_transport_ratio_Phe244Ala of the molecule CC(C)NCC(O)c1ccc(O)c(O)c1 (stereo not drawn) was 2.519

Quick note, Mean_transport_ratio_Phe244Ala for CC(N)CCCC(C)(C)O (stereo not drawn) landed at 2.658

Lab book: Mean_transport_ratio_Phe244Ala of C[N+]1(CCC(C(N)=O)(c2ccccc2)c2ccccc2)CCCCC1 noted as 50.359

# Mean_transport_ratio_Phe244Ala of NCC(O)c1cccc(O)c1 (stereo not drawn) = 1.772

Reported Mean_transport_ratio_Phe244Ala for CN(C)C(=N)N=C(N)N was 1.869

Reported Mean_transport_ratio_Phe244Ala of Cc1ncccc1C(N)=O [Methylnicotinamide] : 0.82

So for CN[C@@H]1CCc2[nH]c3ccc(C(N)=O)cc3c2C1 , the logged Mean_transport_ratio_Phe244Ala turned out to be 10.097

What the record says about Cc1cc(O)cc(C)c1OCC(C)N (stereo not drawn) [4-Hydroxy mexiletine] : Mean_transport_ratio_Phe244Ala is 1.505

Data point: COc1cc(CCN)ccc1O ; Mean_transport_ratio_Phe244Ala = 1.829

Quick note, Mean_transport_ratio_Phe244Ala for C[C@H]1N=C(N(C)C)N=C(N)N1 landed at 9.177

// COc1ccc2c3c([nH]c2c1)C(C)=NCC3 : Mean_transport_ratio_Phe244Ala value = 1.245

COc1cc(CCN)cc(OC)c1OC has a reported Mean_transport_ratio_Phe244Ala of 1.704

Kindly note the recorded Mean_transport_ratio_Phe244Ala for CCOC(=O)c1ccc(OC(=O)CCCCCNC(=N)N)cc1 [Gabexate] , which is 2.051

// field: Mean_transport_ratio_Phe244Ala; key: CNC(C)Cc1ccc2c(c1)OCO2 (stereo not drawn) ; value = 2.142

Consider NCC(O)c1ccc(O)cc1 (stereo not drawn) . Its measured Mean_transport_ratio_Phe244Ala is 2.606

Mean_transport_ratio_Phe244Ala reading for C[N@+]1(CC2CC2)CC[C@]23c4c5ccc(O)c4O[C@H]2C(=O)CC[C@@]3(O)[C@H]1C5 [Methylnaltrexone] : 66.016

Per the record, C[n+]1ccc(-c2ccccc2)cc1 has Mean_transport_ratio_Phe244Ala of 29.377

* * *

- target: OCT1 Phe244Ala variant (Homo sapiens, UniProt O15245, F244A)
- experiment: Uptake screening (transport ratio over empty vector), HEK293 cells overexpressing OCT1 Phe244Ala variant;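 also: stably transfected HEK293 cells, intracellular substrate quantified by HPLC-tandem mass spectrometry in cell lysates, uptake in HBSS+ buffer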
- Type: cell-based
- Design: expressed in transfected cells
- measurement_conditions: uptake ratio over empty vector, HEK293 cells overexpressing OCT1 Phe244Ala
Note to self: Mean_transport_ratio_Phe244Ala under 20 means Yes, ties and anything higher get No.

Does the reported Mean_transport_ratio_Phe244Ala of NCCc1c[nH]c2ccccc12 stay below 20? Yes

I'd appreciate it if you could check whether Nc1ccncc1N has Mean_transport_ratio_Phe244Ala smaller than 20. Yes

Does the reported Mean_transport_ratio_Phe244Ala of the following compound sit strictly below 20? N=C(N)N1CCc2ccccc2C1 No

# strict comparison: is reported Mean_transport_ratio_Phe244Ala < 20? input = CC(C)(C)NCC(O)c1ccc(O)c(O)c1 (stereo not shown) Yes

Could you please tell me whether Mean_transport_ratio_Phe244Ala recorded for O=C(O[C@H]1C[C@H]2CC[C@@H](C1)[N+]21CCCC1)C(O)(c1ccccc1)c1ccccc1 is less than 20? No

Input CC(C)(C)NCC(O)COc1cccc2c1CCC(=O)N2 (stereo not shown) ; condition: Mean_transport_ratio_Phe244Ala strictly below 20. Does it hold? Yes

Strictly below 20: is that where Mean_transport_ratio_Phe244Ala of Cc1nccn1CC1CCc2c(c3ccccc3n2C)C1=O (stereo not shown) sits? Yes

Problem: For the compound NCCc1ccc(O)cc1 , is Mean_transport_ratio_Phe244Ala under 20? Yes

State whether 20 exceeds Mean_transport_ratio_Phe244Ala recorded for CCC1(C2=NCCN2)Cc2ccccc2O1 (stereo not shown) . Yes

In the record for CC(C)NC[C@H](O)COc1ccc(O)cc1 , is Mean_transport_ratio_Phe244Ala less than 20? Yes

Say whether its Mean_transport_ratio_Phe244Ala is strictly beneath 20. Entry: CC[N+](C)(CC)CCOC(=O)C(O)(c1ccccc1)C1CCCCC1 (stereo not shown) No

Hello, I'm reviewing records and need to know if Mean_transport_ratio_Phe244Ala of C=CCN1CCCC1CNC(=O)c1cc(S(N)(=O)=O)cc(OC)c1OC (stereo not shown) [Veralipride] is below 20. Could you check? Yes

Hello, is Mean_transport_ratio_Phe244Ala of the following compound strictly smaller than 20? CC[N+](CC)(CC)Cc1ccccc1 No

Take the compound Nc1nc(=O)n([C@@H]2CS[C@H](CO)O2)cc1F and say whether its Mean_transport_ratio_Phe244Ala is less than 20. Yes

In the record for CCN(CC)CCNC(=O)c1ccc(NS(C)(=O)=O)cc1 , is Mean_transport_ratio_Phe244Ala less than 20? Yes

Just wondering, is Mean_transport_ratio_Phe244Ala of CN1CCN(CC(=O)N2c3ccccc3C(=O)Nc3cccnc32)CC1 below 20? Yes

Here's an entry: O=C(NCCNCC(O)COc1ccc(O)cc1)N1CCOCC1 (stereo not shown) . Is its Mean_transport_ratio_Phe244Ala below 20? Yes

Mean_transport_ratio_Phe244Ala under 20? Item: COc1cc2c(cc1OC)-c1cc3ccc4c(c3c[n+]1CC2)OCO4 [Epiberberine] Yes

Field: below-cutoff. Rule: recorded Mean_transport_ratio_Phe244Ala strictly less than 20. Subject: CNCc1ccc(CSCCNC(=C[N+](=O)[O-])NC)o1 No

Hello, is Mean_transport_ratio_Phe244Ala of the following compound strictly smaller than 20? CNCC(O)c1ccc(O)cc1 (stereo not shown) [Synephrine] Yes

# TODO verify Mean_transport_ratio_Phe244Ala < 20 strictly for this compound: CCCCNC(=N)NC(=N)N Yes

Is 20 strictly greater than the compound's reported Mean_transport_ratio_Phe244Ala? compound: CN(C)CC(c1ccc(O)cc1)C1(O)CCCCC1 (stereo not shown) Yes

Determine whether this compound shows Mean_transport_ratio_Phe244Ala lower than 20 (ties excluded): CC[N+](CC)(CC)CC(=O)Nc1c(C)cccc1C No

I'd appreciate it if you could check whether [H]/N=C(/N)N/C(=N/[H])NCCc1ccccc1 has Mean_transport_ratio_Phe244Ala smaller than 20. No

In plain terms, does COc1ccc(CC(C)(C)NC[C@H](O)c2cc(O)cc3c2OCC(=O)N3)cc1 come in under 20 for Mean_transport_ratio_Phe244Ala? Yes
